The origin of these recorded values is paper PMC5652740.

molecular target: Recombinant PP1 (human PP1α residues 7–300) (Homo sapiens, UniProt P62136); construct: human PP1α (residues 7–300); His; made in house; host or cells: BL21 (DE3) Escherichia coli, co-expressed with GroEL/GroES chaperones; assay: Surface plasmon resonance direct binding to immobilized PP1; conditions: SPR, 1:1 binding model, 25°C; read-out: PP1 WT KD
Sequence (P62136 7-300): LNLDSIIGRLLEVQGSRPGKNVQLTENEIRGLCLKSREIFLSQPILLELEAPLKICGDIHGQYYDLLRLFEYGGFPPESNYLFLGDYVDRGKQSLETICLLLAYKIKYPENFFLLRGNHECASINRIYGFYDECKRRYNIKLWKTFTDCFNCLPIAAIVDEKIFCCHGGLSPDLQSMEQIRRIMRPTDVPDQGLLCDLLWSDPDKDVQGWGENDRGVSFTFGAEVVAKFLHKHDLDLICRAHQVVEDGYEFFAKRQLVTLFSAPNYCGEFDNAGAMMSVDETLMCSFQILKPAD
Property Measured: pKd
Numbers only, as −log10 of the molar value.

A selection of reference data follows.
>  <Compound>
COc1ccc(/C=C2\CCc3c2nc2ccccc2c3C(=O)OC(C)C(=O)O)cc1OC (stereo not drawn)

>  <Property Measured>
pKd

>  <Numeric Value>
5.43

$$$$
>  <Compound>
CCNC(=O)NC(=O)C(C)OC(=O)c1c2c(nc3ccccc13)/C(=C/c1ccc(OC)c(OC)c1)CC2 (stereo not drawn)

>  <Property Measured>
pKd

>  <Numeric Value>
5.21

$$$$

Now look at this one.
Exam item: If you can, please state the reported pKd value of COc1ccc(/C=C2\CCc3c2nc2ccccc2c3C(=O)O)cc1OC .
Marked response: 5.31

====

assay: Pharmacokinetic analysis in mice after i.p. injection; format: in vivo; conditions: male, BALB/cJ, ip; mouse plasma after i.p. 30 mg/kg 1E7-03; parent and metabolites DP1, DP3
Property Measured: MRT last (h)
Answers are plain numbers, in h.

A selection of reference data follows.
>  <Compound>
COc1ccc(/C=C2\CCc3c2nc2ccccc2c3C(=O)O)cc1OC

>  <Units Of Measure>
h

>  <MRT last>
4.39

$$$$
>  <Compound>
CCNC(=O)NC(=O)C(C)OC(=O)c1c2c(nc3ccccc13)/C(=C/c1ccc(OC)c(OC)c1)CC2 (stereo not drawn)

>  <Units Of Measure>
h

>  <MRT last>
2.4

$$$$

Now look at this one.
Exam item: If you can, please state the reported MRT last value of COc1ccc(/C=C2\CCc3c2nc2ccccc2c3C(=O)OC(C)C(=O)O)cc1OC (stereo not drawn) .
Marked response: 4.98

====

assay: Pharmacokinetic analysis in mice after i.p. injection; type: in vivo; settings: male, BALB/cJ, mouse, plasma, ip; i.p. 100 mg/kg DP1-07, 24 hrs; read-out: concentration present in murine blood 24 hrs post-injection
Property Measured: concentration at 24 h (µM)
One number for each entry, in µM.

Exam item: If you can, please state the reported concentration at 24 h value of COc1ccc(/C=C2\CCCc3c2nc2ccccc2c3C(=O)OC(C)C(=O)OC(C)(C)C)cc1OC (stereo not shown) .
Marked response: 18

====

Test: Pharmacokinetic analysis in mice after i.p. injection
Type: in vivo
Settings: male, BALB/cJ, ip; mouse plasma after i.p. 100 mg/kg DP1-07; parent and products DP1-07P1, DP1-07P2 (quantified with DP1 and DP3 calibration curves)
Experimental: The animal facilities and protocols were approved by Howard University Institutional Animal Care and Use Committee (IACUC). All experimental procedures were in accordance with the NIH Guidelines for the Care and Use of Laboratory Animals. […] The plasma concentration–time profile of each analyte was constructed and pharmacokinetic parameters were determined by non-compartmental method using Phoenix WinNonlin Version 5.3 (Pharsight Corporation, Mountain View, CA). […]
Property Measured: Cmax

>  <Compound>
COc1ccc(/C=C2\CCCc3c2nc2ccccc2c3C(=O)OC(C)C(=O)O)cc1OC (stereo not drawn)

>  <Cmax>
7.54 µM

$$$$
>  <Compound>
COc1ccc(/C=C2\CCCc3c2nc2ccccc2c3C(=O)O)cc1OC

>  <Cmax>
23.7 µM

$$$$

Now look at this one.
Exam item: If you can, please state the reported Cmax value of COc1ccc(/C=C2\CCCc3c2nc2ccccc2c3C(=O)OC(C)C(=O)OC(C)(C)C)cc1OC (stereo not drawn) .
Marked response: 42.7 µM
